Data provenance is patent US20200399262A1.

tested on: LOX IMVI; test: Cell viability panel, CyQUANT Direct; type: cell-based; conditions: Homo sapiens, Melanoma, 48 hours, read-out: Compound EC50
measured_attribute: EC50

Reported LOX IMVI EC50 for item CN(C)CCCS(=O)(=O)N1C/C(=C\c2ccc(C#N)cc2)C(=O)/C(=C/c2ccc(C#N)cc2)C1 was < 300 nM

====

tested on: SF-268; test: NCI60 screen cytotoxicity; type: cell-based; conditions: Homo sapiens, CNS, read-out: Compound B1 EC50
measured_attribute: EC50

Reported EC50 ( CN(C)CC(=O)NCC(=O)N1C/C(=C\c2ccc(C#N)cc2)C(=O)/C(=C/c2ccc(C#N)cc2)C1 ) = < 300 nM

====

system: HCT-116; assay: NCI60 screen cytotoxicity; assay type: cell-based; conditions: Homo sapiens, Colon cancer, read-out: Compound B1 EC50
pEC50: −log10 of the molar value.
measured_attribute: pEC50

Reported pEC50 ( CN(C)CC(=O)NCC(=O)N1C/C(=C\c2ccc(C#N)cc2)C(=O)/C(=C/c2ccc(C#N)cc2)C1 ) = > 6.52

====

system: SN12C; assay: NCI60 screen cytotoxicity; assay type: cell-based; conditions: Homo sapiens, Renal cancer, read-out: Compound B1 EC50
pEC50: −log10 of the molar value.
measured_attribute: pEC50

Reported pEC50 ( CN(C)CC(=O)NCC(=O)N1C/C(=C\c2ccc(C#N)cc2)C(=O)/C(=C/c2ccc(C#N)cc2)C1 ) = > 6.52

====

system: U266; test: Cell viability, ATPlite 1-step, MM cell lines; assay type: cell-based; conditions: Homo sapiens, U-266; U266 MM cell line; 48 hours; read-out: Compound EC50
measured_attribute: EC50

// each listed compound needs a value for EC50
1. O=C1/C(=C/c2ccc(Cl)c(Cl)c2)CN(C(=O)CCc2ccccc2)C/C1=C\c1ccc(Cl)c(Cl)c1
2. O=C1/C(=C/c2ccc(Cl)c(Cl)c2)CN(C(=O)CNc2ccccc2)C/C1=C\c1ccc(Cl)c(Cl)c1
3. CC(=O)NCCC(=O)N1C/C(=C\c2ccc(Cl)c(Cl)c2)C(=O)C(Cc2ccc(Cl)c(Cl)c2)C1 (stereo not shown)
4. CNC(=O)CCC(=O)N1C/C(=C\c2ccc(Cl)c(Cl)c2)C(=O)/C(=C/c2ccc(Cl)c(Cl)c2)C1

Result:
300 to 1000 nM
≥ 1000 nM
≥ 1000 nM
300 to 1000 nM

====

system: MOLT-4; assay: NCI60 screen cytotoxicity; assay type: cell-based; conditions: Homo sapiens, Leukemia, read-out: Compound B1 EC50
measured_attribute: EC50

Reported EC50 ( CN(C)CC(=O)NCC(=O)N1C/C(=C\c2ccc(C#N)cc2)C(=O)/C(=C/c2ccc(C#N)cc2)C1 [Compound B1] ) = < 300 nM

====

tested on: SW837; experiment: Cell viability panel, ATPlite 1Step; type: cell-based; details: Homo sapiens, Rectal adenocarcinoma, 72 h exposure, read-out: Compound EC50
pEC50: −log10 of the molar value.
measured_attribute: pEC50

Reported pEC50 ( CN(C)CCCS(=O)(=O)N1C/C(=C\c2ccc(C#N)cc2)C(=O)/C(=C/c2ccc(C#N)cc2)C1 [Compound AA] ) = 6.00 to 6.52

====

Test system: LS411N
Test: Cell viability panel, ATPlite 1Step
Type: cell-based
Conditions: Homo sapiens, LS-411N, Cecum adenocarcinoma, 72 h exposure, read-out: Compound EC50
Description: Cell viability panel studies. Cells were diluted in the corresponding ATCC recommended medium and dispensed in a 384-well plate, depending on the cell line used, at a density of 200-6400 cells per well. For each used cell line, the optimal cell density was used. […] Following incubation at 37° C. for 48 hours with increasing concentrations of the compounds, viability was determined with CyQUANT® Direct Assay Kit (Invitrogen). […]
measured_attribute: EC50

Reported EC50 ( CN(C)CCCS(=O)(=O)N1C/C(=C\c2ccc(C#N)cc2)C(=O)/C(=C/c2ccc(C#N)cc2)C1 ) = 300 to 1000 nM
